So I've got a bunch of compounds here, and I need their inhibition values.
MEASUREMENT_TARGET: Aminopeptidase N (Plasmodium falciparum (isolate 3D7)) (UniProt O96935)
Sequence (O96935 whole entry, looked up): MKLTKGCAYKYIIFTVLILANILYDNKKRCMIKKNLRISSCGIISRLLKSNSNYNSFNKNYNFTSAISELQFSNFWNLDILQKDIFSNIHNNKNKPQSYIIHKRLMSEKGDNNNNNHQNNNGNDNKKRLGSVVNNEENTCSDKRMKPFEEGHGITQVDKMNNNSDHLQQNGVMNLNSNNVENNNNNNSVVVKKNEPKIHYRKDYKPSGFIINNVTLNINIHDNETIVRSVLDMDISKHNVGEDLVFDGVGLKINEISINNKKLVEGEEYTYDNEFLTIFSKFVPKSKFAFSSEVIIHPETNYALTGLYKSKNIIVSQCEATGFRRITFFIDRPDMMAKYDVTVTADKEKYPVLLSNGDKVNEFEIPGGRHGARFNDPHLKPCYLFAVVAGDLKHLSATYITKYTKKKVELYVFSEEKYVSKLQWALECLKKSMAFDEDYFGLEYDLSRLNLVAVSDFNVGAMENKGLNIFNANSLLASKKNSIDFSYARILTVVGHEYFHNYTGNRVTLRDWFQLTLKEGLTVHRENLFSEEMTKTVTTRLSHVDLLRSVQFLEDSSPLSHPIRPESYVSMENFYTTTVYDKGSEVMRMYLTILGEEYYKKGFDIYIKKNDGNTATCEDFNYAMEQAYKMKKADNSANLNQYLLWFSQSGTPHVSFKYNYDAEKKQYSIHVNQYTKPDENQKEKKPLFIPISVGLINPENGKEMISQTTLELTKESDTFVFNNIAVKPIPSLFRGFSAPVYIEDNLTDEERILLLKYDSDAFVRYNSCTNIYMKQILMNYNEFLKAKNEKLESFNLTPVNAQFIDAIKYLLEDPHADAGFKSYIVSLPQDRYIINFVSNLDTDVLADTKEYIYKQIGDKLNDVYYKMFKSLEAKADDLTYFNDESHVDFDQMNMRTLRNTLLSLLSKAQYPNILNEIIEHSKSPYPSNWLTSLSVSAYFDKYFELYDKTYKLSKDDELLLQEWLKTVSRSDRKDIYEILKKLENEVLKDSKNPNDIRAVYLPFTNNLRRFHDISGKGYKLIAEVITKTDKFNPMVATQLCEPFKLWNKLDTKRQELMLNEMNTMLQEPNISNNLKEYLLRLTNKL
PROTOCOL_NOTES: malaria alanyl aminopeptidase activity blockers – biochemical, fluorogenic H-Leu-NHMec substrate, 1536-well (AID 1445);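 also: plate controls were DMSO full reaction for no effect and no enzyme background for full effect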
CONDITION_LABEL: recombinant M1AAP, H-Leu-NHMec fluorogenic kinetic assay; at 30 µM, active compounds read high unless noted
The campaign covered roughly 220,000 compounds. About 910 (0.41%) were called active. The sample as a whole holds a higher share of actives than the screen did. Results with a measured potency or affinity are listed apart.
Numbers only, in %.

Solved entries (count: 2):
| COMPOUND | MEASUREMENT_TARGET | READOUT_UNIT | inhibition |
| --- | --- | --- | --- |
| CCOC(=O)c1cc(C)[nH]c(=S)c1C#N | Aminopeptidase N (Plasmodium falciparum (isolate 3D7)) (UniProt O96935) | % | 5.55 |
| C=CCOC(=O)C1=C[C@@H](c2coc3ccccc3c2=O)C[C@@H](OCc2ccc(CO)cc2)O1 | Aminopeptidase N (Plasmodium falciparum (isolate 3D7)) (UniProt O96935) | % | 6.22 |

Please give inhibition, item by item, for the list that follows.
1. CC(C)C(=O)NCCc1nc2ccccc2n1CCCOc1ccc(Cl)cc1
2. Cc1ccc(C(=O)NC(=S)NCC2CCCO2)cc1Br (stereo unspecified)
3. O=C(Oc1c(CN2CCOCC2)cc(Cl)c2cccnc12)c1ccccc1
4. O=C(C1CC1)N1CCN(S(=O)(=O)c2ccc3c(c2)OCCO3)CC1

[10.4, 3.05, 4.42, 2.72]

* * *

MEASUREMENT_TARGET: Aminopeptidase N (Plasmodium falciparum (isolate 3D7))
PROTOCOL_NOTES: malaria alanyl aminopeptidase activity blockers – biochemical, fluorogenic H-Leu-NHMec substrate, 1536-well (AID 1445)
CONDITION_LABEL: recombinant M1AAP, H-Leu-NHMec fluorogenic kinetic assay; at 30 µM, active compounds read high unless noted
The campaign covered roughly 220,000 compounds. About 910 (0.41%) were called active. This excerpt belongs to a sample that is enriched for actives. Potency and affinity values are given separately.
MEASURED_METRIC: inhibition (%)
Answers are plain numbers, in %.

| COMPOUND | RECORDED_VALUE |
| --- | --- |
| COc1ccccc1NC(=O)C(C)NS(=O)(=O)c1ccc(Cl)cc1 (stereo unspecified) | 0.77 |
| COc1cc(/C=N/N2C(=O)CSC2=S)ccc1O | 20.3 |
| CCOc1cc(C2C3=C(CCCC3=O)N(C)C3=C2C(=O)CCC3)cc(Cl)c1O | 18.7 |
| S=C(NC1CC1)N1CCN(c2ccc(Cl)cc2)CC1 | -2.34 |

Please give inhibition, item by item, for the list that follows.
1. NS(=O)(=O)c1ccc(N2N=C(c3ccc(Br)cc3)CC2c2ccc(F)cc2)cc1 (stereo unspecified)
2. NS(=O)(=O)c1ccc(N2N=C(c3ccccc3)CC2c2ccccc2)cc1 (stereo unspecified)

[5.03, 19.1]

* * *

MEASUREMENT_TARGET: Aminopeptidase N (Plasmodium falciparum (isolate 3D7)) (UniProt O96935)
PROTOCOL_NOTES: malaria alanyl aminopeptidase activity blockers – biochemical, fluorogenic H-Leu-NHMec substrate, 1536-well (AID 1445);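 also: plate controls were DMSO full reaction for no effect and no enzyme background for full effect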
CONDITION_LABEL: recombinant M1AAP, H-Leu-NHMec fluorogenic kinetic assay; at 30 µM, active compounds read high unless noted
Out of some 220,000 compounds screened, about 910 (0.41%) were called active. The sample as a whole holds a higher share of actives than the screen did. Results with a measured potency or affinity are listed apart.
MEASURED_METRIC: inhibition (%)
Numbers only, in %.

Solved entries (count: 8):
| MOLECULE | READOUT_UNIT | inhibition |
| --- | --- | --- |
| Cc1nc2sc(C(c3ccc(C(C)C)cc3)N3CCN(CCO)CC3)c(O)n2n1 (stereo not drawn) | % | 1.32 |
| Cc1c(NC(=O)c2ccccc2NS(=O)(=O)c2ccc(Br)cc2)c(=O)n(-c2ccccc2)n1C | % | 24.5 |
| Cc1c(NS(=O)(=O)c2ccc(C(=O)NCc3ccccc3)cc2)c(=O)n(-c2ccccc2)n1C | % | 0.49 |
| O=C(N/N=C/c1ccc(-c2cccc([N+](=O)[O-])c2)o1)c1ccc([N+](=O)[O-])cc1 | % | 2.39 |
| O=[N+]([O-])c1ccc(-c2ccc(/C=N/O)o2)cc1 | % | 2.25 |
| O=C1c2ccccc2C(=O)N1c1nc2nccc(-c3ccccc3)n2n1 | % | -0.09 |
| Cc1cccc(C)c1NC(=O)c1sc(Cl)nc1C | % | -2.07 |
| Cc1ccc(C(=O)N/N=C\c2ccc(-c3ccc([N+](=O)[O-])cc3)o2)cn1 | % | 9.19 |

Please give inhibition, item by item, for the list that follows.
1. Cc1[nH]n(-c2ccccc2)c(=O)c1N=Nc1ccccc1
2. O=C(NCc1cccnc1)C(=O)NCC(c1ccco1)N1CCOCC1 (stereo not drawn)
3. CCN1C(=S)SC(=O)C1=C1C=C(C)OC(C)=C1
4. CCOC(=O)COc1ccc(/C=C/[N+](=O)[O-])c(OCC(=O)OCC)c1
5. CCOc1cc(/C=N\NC(=O)c2ccc(C)nc2)cc([N+](=O)[O-])c1O
6. CC(=O)NC(=S)Nc1ccc([N+](=O)[O-])cc1C

1. 4.86
2. 11.1
3. 0.47
4. 1.07
5. 19.1
6. 3.35

Please give inhibition, item by item, for the list that follows.
1. Cc1c(NC(=O)c2ccccc2NS(=O)(=O)c2ccc(F)cc2)c(=O)n(-c2ccccc2)n1C
2. N#CCCN1CCN(C(=S)c2ccc(-c3ccc(Cl)c(Cl)c3)o2)CC1
3. O=C(O)c1ccc(N/N=C/c2ccc(-c3cccc(Cl)c3)o2)cc1
4. Cc1cc([N+](=O)[O-])ccc1NC(=S)NC(=O)C(c1ccccc1)c1ccccc1

1. 20.1
2. 7.98
3. 13.1
4. 9.66

* * *

So I've got a bunch of compounds here, and I need their inhibition values.
MEASUREMENT_TARGET: Aminopeptidase N (Plasmodium falciparum (isolate 3D7)) (UniProt O96935)
PROTOCOL_NOTES: malaria alanyl aminopeptidase activity blockers – biochemical, fluorogenic H-Leu-NHMec substrate, 1536-well (AID 1445);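 also: plate controls were DMSO full reaction for no effect and no enzyme background for full effect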
CONDITION_LABEL: recombinant M1AAP, H-Leu-NHMec fluorogenic kinetic assay; at 30 µM, active compounds read high unless noted
Hit rate of the full screen: of about 220,000 compounds, about 910 (0.41%) were called active. Only a selection was taken, and actives are over-represented in it overall. Entries with a potency or affinity are not part of this list.
Give bare numbers, in %.

| COMPOUND | READOUT_UNIT | inhibition |
| --- | --- | --- |
| CC1CCc2c(sc3nc(CSc4n[nH]c(N)n4)[nH]c(=O)c23)C1 (stereo not given) | % | -10.6 |
| CCCn1nc(C(=O)NCc2ccc3c(c2)OCO3)c2ccccc2c1=O | % | 9.46 |

Please give inhibition, item by item, for the list that follows.
1. CCOCCCNc1nc2c(C)cccn2c(=O)c1/C=C1\SC(=S)N(CC(C)C)C1=O
2. Cc1nn2c(N3CCCC3)c3c(nc2c1-c1ccccc1)CCC3
3. CCOc1ccccc1NC(=O)/C(C#N)=C/c1c(C)nn(-c2ccccc2)c1Cl

[-0.56, 7, 4.31]

Please give inhibition, item by item, for the list that follows.
1. Cc1ccc2[nH]c(=O)c(CN(Cc3ccco3)S(=O)(=O)c3c(C)ccc4nsnc34)cc2c1
2. Cc1cccc(NC(=O)CN2C(=O)COc3ccc(Cl)cc32)c1C
3. CCCCOC(=O)Nc1nnc(CCOCC)s1
4. COc1ccc(C2c3[nH]c4ccccc4c3CCN2C(=O)c2ccc(=O)n(C)n2)c(F)c1 (stereo not given)
5. Cc1cc2cc(CN(Cc3ccco3)S(=O)(=O)c3c(C)ccc4nsnc34)c(=O)[nH]c2cc1C

1. 24.1
2. 0.78
3. 2.38
4. -6.53
5. 12.1

* * *

MEASUREMENT_TARGET: Aminopeptidase N (Plasmodium falciparum (isolate 3D7))
PROTOCOL_NOTES: malaria alanyl aminopeptidase activity blockers – biochemical, fluorogenic H-Leu-NHMec substrate, 1536-well (AID 1445);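 also: plate controls were DMSO full reaction for no effect and no enzyme background for full effect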
CONDITION_LABEL: recombinant M1AAP, H-Leu-NHMec fluorogenic kinetic assay; at 30 µM, active compounds read high unless noted
Screen size: about 220,000 compounds; about 910 (0.41%) were called active. Shown is part of a subset that was picked to be rich in actives. Results with a measured potency or affinity are listed apart.
MEASURED_METRIC: inhibition

| COMPOUND | RECORDED_VALUE |
| --- | --- |
| C/C(=N/NC(=O)c1sc(NS(=O)(=O)c2ccccc2)nc1C)c1ccccc1 | 18.9% (inactive) |

Please give inhibition, item by item, for the list that follows.
1. Cc1ccc(Cn2c(SCCN3CCOCC3)nc3c2c(=O)n(C)c(=O)n3C)cc1
2. CCc1[nH]c(=O)c(C#N)c2c1CSC(C)(C)C2
3. O=C(N/N=C/c1cc([N+](=O)[O-])ccc1O)c1ccncc1
4. CCOc1ccc(S(=O)(=O)Nc2cc(OC)ccc2OC)cc1
5. CCOc1ccc(S(=O)(=O)Nc2cc(Cl)ccc2O)cc1
6. O=C(O)CC/C(=N\Nc1ccc([N+](=O)[O-])cc1)c1ccccc1
7. COc1cc(/C=C/C(=O)OCC(=O)NCc2cccs2)ccc1OC(F)F

23.8% (active)
10.3% (inactive)
18.8% (inactive)
4.04% (inactive)
24.5% (active)
7.87% (inactive)
4.72% (inactive)

Please give inhibition, item by item, for the list that follows.
1. CN(C)CC(C)(C)CNC(=S)Nc1ccc(S(=O)(=O)N2CCOCC2)cc1
2. CC(C)Cn1c(-c2ccncc2)n[nH]c1=S
3. CCOc1ccc(-c2cn(-c3cccc(SC)c3)c(=O)[nH]2)cc1
4. Cc1ccc(C(=O)Nc2ccccc2-c2ccccc2)o1
5. Cc1ccsc1/C=N/NC(=O)c1ccc(-n2cccc2)cc1
6. COc1ccc(-c2cn(-c3cccc(C)c3)c(=O)[nH]2)cc1OC
7. CCNc1nc(SC(C)C(=O)Nc2ccccc2)nc(N(C)C)n1 (stereo not drawn)

1: 2.96% (inactive); 2: -1.73% (inactive); 3: 7.5% (inactive); 4: 5.46% (inactive); 5: -0.71% (inactive); 6: 0.73% (inactive); 7: 0.28% (inactive)

Please give inhibition, item by item, for the list that follows.
1. CN(C)c1ccc(NC(=O)CSc2nc(N)c(C(=O)Nc3ccc(N(C)C)cc3)s2)cc1
2. CC(=O)N1CCN(c2ccc(NC(=O)c3ccc(Br)o3)cc2Cl)CC1
3. Cn1c(=O)c2c(nc(SCCN3CCOCC3)n2Cc2ccc(F)cc2)n(C)c1=O
4. C=CCOc1ccc(C(=O)N(Cc2ccc(N(C)C)cc2)C2CCS(=O)(=O)C2)cc1 (stereo not drawn)
5. O=C(N/N=C/c1cc(Br)cc(Br)c1O)c1ccncc1

-0.46% (inactive)
4.42% (inactive)
-1.46% (inactive)
13% (inactive)
36.7% (inactive)
